test_summary: NCI Yeast Anticancer Drug Screen. Data for the sgs1 mgt1 strain (AID 161);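 also: 0% = growth of cultures given vehicle only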
conditions: S. cerevisiae sgs1 mgt1 strain, at 5.0 µM (retest, dose inferred, filed as 0.5), stronger effect = higher value
Compounds without any hit were thinned out: in the full panel of roughly 79,000, 15% have a hit.
recorded_endpoint: growth inhibition (%)
Use % as the unit, but write only the number.

Give the measured growth inhibition of Cc1ncc(CO)c(C=NCCCCCCN=Cc2c(CO)cnc(C)c2[O-])c1[O-].[Cu+2] . -4

Give the measured growth inhibition of Cc1cc(=O)c2cc(N=Cc3ccc([N+](=O)[O-])o3)ccc2o1 . -6

Give the measured growth inhibition of c1ccc2c(c1)OCC(CN1CCN(CC3COc4ccccc4O3)CC1)O2 (configuration not stated) . 47

Give the measured growth inhibition of Cc1nn(C)c2ccc3ccccc3c(=O)c12 . 2

Give the measured growth inhibition of NC(=O)SCC(=O)Nc1ccccc1 . 1

Give the measured growth inhibition of Clc1ccccc1N1CCN(c2c3c(nc4ccccc24)CCCCC3)CC1 . 38

Give the measured growth inhibition of CN(C)NC(=S)C(F)(F)F . 0

Give the measured growth inhibition of O=C1C(Cl)=C(Cl)C(=O)C2=C1CC(Cl)C(Cl)C2 (configuration not stated) . 91

Give the measured growth inhibition of NNc1cc(C(F)(F)F)nc2ccccc12 . -53

Give the measured growth inhibition of Cc1[nH]nc(C(=O)N/N=C/c2ccccc2Cl)c1N=NN(C)C . 33

Give the measured growth inhibition of O=P1(O)c2ccccc2CS(=O)(=O)Cc2ccccc21 . 26

Give the measured growth inhibition of Cc1ccc([P+](CCN2C(=O)c3ccccc3C2=O)(c2ccc(C)cc2)c2ccc(C)cc2)cc1 . 89

Cited source for all entries: PubChem BioAssay (NCI)
